Sourced from the supplement of paper PMC6279402

# Tested on: A549
# Assay Details: relative viability (normalised to negative control = 1, bortezomib = 0) (fraction); higher = less cytotoxic
# Condition Parameters: inflammatory serum-free RHB-A with cytokines + LPS; 5 d + 24 h CellTiter-Blue; compound 300 nM; GSK126 pretreatment: none (vehicle)
Counter-ions that a name gives are not always drawn.
Observation Type: relative viability
Answers are plain numbers.

Below, 4 compounds whose answers are already recorded.
CCc1c2c(nc3ccc(OC(=O)N4CCC(N5CCCCC5)CC4)cc13)-c1cc3c(c(=O)n1C2)COC(=O)[C@]3(O)CC [Irinotecan HCl; Irinotecan hydrochloride] | 0.917
CN(Cc1cnc2nc(N)nc(N)c2n1)c1ccc(C(=O)N[C@@H](CCC(=O)O)C(=O)O)cc1 [Methotrexate hydrate; Methotrexate] | 0.947
COc1cccc2cc(-c3nc(C4CCC(C(=O)O)CC4)n4ncnc(N)c34)[nH]c12 (stereo not given) | 0.718
CO[C@H]1C[C@@H]2CC[C@@H](C)[C@@](O)(O2)C(=O)C(=O)N2CCCC[C@H]2C(=O)O[C@H]([C@H](C)C[C@@H]2CC[C@@H](OC(=O)C(C)(CO)CO)[C@H](OC)C2)CC(=O)[C@H](C)/C=C(\C)[C@@H](O)[C@@H](OC)C(=O)[C@H](C)C[C@H](C)/C=C/C=C/C=C/1C | 0.531

Q. Consider the compound CN(N=O)C(=O)N[C@@H]1[C@@H](O)[C@H](O)[C@@H](CO)O[C@@H]1O and give its recorded relative viability.
A. 1.08

---

Answer each item with its documented relative viability.
# System: A549
# Assay Details: relative viability (normalised to negative control = 1, bortezomib = 0) (fraction); higher = less cytotoxic
# Condition Parameters: inflammatory serum-free RHB-A with cytokines + LPS; 5 d + 24 h CellTiter-Blue; compound 300 nM; GSK126 pretreatment: 5 uM GSK126

Nc1nc2[nH]cc(CCc3ccc(C(=O)N[C@@H](CCC(=O)O)C(=O)O)cc3)c2c(=O)[nH]1 [Pemetrexed; Pemetrexed Disodium] | 0.829
CC1(C)CNc2cc(NC(=O)c3cccnc3NCc3ccncc3)ccc21 [Motesanib Diphosphate] | 0.937
CCCCCOC(=O)Nc1nc(=O)n([C@@H]2O[C@H](C)[C@@H](O)[C@H]2O)cc1F | 0.892

Q. Respond only with relative viability recorded for Nc1ccn([C@@H]2O[C@H](CO)[C@@H](O)[C@@H]2O)c(=O)n1
A. 0.668

---

# System: A549
# Assay Details: relative viability (normalised to negative control = 1, bortezomib = 0) (fraction); higher = less cytotoxic
# Condition Parameters: inflammatory serum-free RHB-A with cytokines + LPS; 5 d + 24 h CellTiter-Blue; compound 300 nM; GSK126 pretreatment: none (vehicle)
Where a name gives a salt, the structure may show the parent alone.
Observation Type: relative viability
One number for each entry.

NC(=O)NO [Hydroxyurea] | 1.06
Cn1c(=O)c(F)c(Nc2ccc(I)cc2F)c2c(=O)n(C[C@@H](O)CO)cnc21 | 0.0397
CN(C)c1ccc(-c2nc3ncc(Cl)c(N4CCN(CC(=O)Nc5nccs5)CC4)c3[nH]2)cc1 | 1.07
Cc1cccc(-c2[nH]c(C(C)(C)C)nc2-c2ccc3nccnc3c2)n1 | 0.887
COc1cccc2c1C(=O)c1c(O)c3c(c(O)c1C2=O)C[C@@](O)(C(C)=O)C[C@@H]3O[C@H]1C[C@H](N)[C@H](O)[C@H](C)O1 [Daunorubicin hydrochloride; Daunorubicin HCl] | 0.143

// for each compound in input: emit relative viability
1. Cn1cnc2c(F)c(Nc3ccc(Br)cc3Cl)c(C(=O)NOCCO)cc21 [AZD6244(Selumetinib)]
2. CC[C@]1(O)C[C@H]2CN(CCc3c([nH]c4ccccc34)[C@@](C(=O)OC)(c3cc4c(cc3OC)N(C=O)[C@H]3[C@@](O)(C(=O)OC)[C@H](OC(C)=O)[C@]5(CC)C=CCN6CC[C@]43[C@@H]65)C2)C1 [Vincristine sulfate]
3. N#Cc1ccc(C(c2ccc(C#N)cc2)n2cncn2)cc1 [Letrozole]

A.
0.34
0.303
0.932

Return reported relative viability values for all items listed beneath this line.
1. CC[C@H](CO)Nc1nc(NCc2ccccc2)c2ncn(C(C)C)c2n1 [ROSCOVITINE; Roscovitine(CYC202); Roscovitine]
2. CC(C)c1cnn2c(NCc3ccccc3)cc(NCCCCCCN)nc12 [BS-181 hydrochloride]
3. COc1cc([C@@H]2c3cc4c(cc3[C@@H](O[C@@H]3O[C@@H]5CO[C@@H](c6cccs6)O[C@H]5[C@H](O)[C@H]3O)[C@H]3COC(=O)[C@H]23)OCO4)cc(OC)c1O [Teniposide]
4. Cc1cn(-c2cc(NC(=O)c3ccc(C)c(Nc4nccc(-c5cccnc5)n4)c3)cc(C(F)(F)F)c2)cn1 [Nilotinib]
5. Cn1cnc(-c2cc3nccc(Oc4ccc(NC(=S)NC(=O)Cc5ccccc5)cc4F)c3s2)c1
6. CCOc1cc2ncc(C#N)c(Nc3ccc(OCc4ccccn4)c(Cl)c3)c2cc1NC(=O)/C=C/CN(C)C [Neratinib]
7. Nc1nc(Nc2ccc(S(N)(=O)=O)cc2)nn1C(=O)c1c(F)cccc1F

A.
1. 0.902
2. 0.895
3. 0.544
4. 1.07
5. 0.945
6. 0.183
7. 1.07
